test system: Trypanosoma cruzi; experiment: Antitrypanosomal activity against nifurtimox-sensitive Trypanosoma cruzi Tulahuen CL2 infected in human MRC-5 SV2 cells assessed as inhibition of parasite growth measured after 7 days by spectrophotometric analysis; assay type: functional, organism-based; conditions: Tulahuen CL2, MRC-5 SV2, 168 h
pIC50: −log10 of the molar value.
The reader will find reported pIC50 values listed item by item below.

Example entries begin here.
{"molecule smiles": "Nc1ncnc2c1c(-c1nnn[nH]1)nn2[C@@H]1O[C@H](CO)[C@@H](O)[C@H]1O", "pIC50": "< 4.19"}
{"molecule smiles": "O=c1[nH]cnc2c1c(Br)nn2[C@@H]1O[C@H](CO)[C@@H](O)[C@H]1O", "pIC50": "< 4.19"}
{"molecule smiles": "CNc1nn([C@@H]2O[C@H](CO)[C@@H](O)[C@H]2O)c2ncnc(N)c12", "pIC50": "< 4.19"}

Incoming: Which measured pIC50 value corresponds to Nc1ncnc2c1cnn2[C@H]1C[C@H](O)[C@@H](CO)O1 ?
Outgoing: < 4.19

Incoming: Please look up its pIC50: Nc1ncnc2c1c(CN1CCOCC1)nn2[C@@H]1O[C@H](CO)[C@@H](O)[C@H]1O
Outgoing: < 4.19

Incoming: Which pIC50 value is on record for O=c1[nH]cnc2c1cnn2[C@@H]1O[C@H](CO)C[C@H]1O ?
Outgoing: < 4.19

----------
# reported CC50 at 72 h; entries follow
experiment: Cytotoxicity against human MRC-5 SV2 cells assessed as reduction in cell growth measured after 3 days by resazurin dye based fluorometric analysis; details: time 3 day

Here is how some compounds turned out for CC50 at 72 h.
{"molecule smiles": "CCOc1cc(-c2nn([C@@H]3O[C@H](CO)[C@@H](O)[C@H]3O)c3ncnc(N)c23)ccc1Cl", "CC50 at 72 h": "> 64 µM"}
{"molecule smiles": "Nc1ncnc2c1c(C(F)(F)F)nn2[C@@H]1O[C@H](CO)[C@@H](O)[C@H]1O", "CC50 at 72 h": "13.3 µM"}

Lab note: next compound to report on.
Incoming: Consider the compound Nc1ncnc2c1c(-c1ccc(Cl)c(Cl)c1)nn2[C@@H]1O[C@H](CO)[C@@H](O)[C@H]1O and give its measured CC50 at 72 h.
Outgoing: > 64 µM

----------
tested on: Leishmania infantum; assay: Antileishmanial activity against amastigote form of Leishmania infantum MHOM/MA(BE)/67 infected in Swiss mouse peritoneal macrophages assessed as reduction in parasite growth treated at 2 hrs post-infection and measured after 5 days by Giemsa staining based microscopic analysis; assay type: functional, organism-based; settings: MHOM/MA(BE)/67, Peritoneal macrophage
Overview of reported IC50 across a group of molecules:

Worked examples, 3 molecules total:
{"molecule smiles": "Nc1ncnc2c1c(-c1ccc(Cl)cc1)nn2[C@@H]1O[C@H](CO)C[C@H]1O", "IC50": "> 64 µM"}
{"molecule smiles": "CCc1nn([C@@H]2O[C@H](CO)[C@@H](O)[C@H]2O)c2ncnc(N)c12", "IC50": "> 64 µM"}
{"molecule smiles": "NCc1nn([C@@H]2O[C@H](CO)[C@@H](O)[C@H]2O)c2ncnc(N)c12", "IC50": "2 µM"}

Incoming: State its IC50 on Leishmania infantum: Cc1cc(-c2nn([C@@H]3O[C@H](CO)[C@@H](O)[C@H]3O)c3ncnc(N)c23)ccc1Cl
Outgoing: > 64 µM

Incoming: Write down the reported IC50 of Nc1ncnc2c1c(-c1ccc([N+](=O)[O-])cc1)nn2[C@@H]1O[C@H](CO)[C@@H](O)[C@H]1O , test system: Leishmania infantum.
Outgoing: > 64 µM

Incoming: # returns recorded IC50 (system: Leishmania infantum) for Nc1ncnc2c1c(-c1ccccc1)nn2[C@@H]1O[C@H](CO)[C@@H](O)[C@H]1O
Outgoing: > 64 µM

Incoming: Given the entry O=c1[nH]cnc2c1c(Br)nn2[C@@H]1O[C@H](CO)[C@@H](O)[C@H]1O , what IC50 was observed with Leishmania infantum?
Outgoing: > 64 µM

Incoming: Give the reported IC50 for COc1cc(-c2nn([C@@H]3O[C@H](CO)[C@@H](O)[C@H]3O)c3ncnc(N)c23)ccc1Cl (system: Leishmania infantum).
Outgoing: > 64 µM

Incoming: Tell me reported IC50 for CNc1nn([C@@H]2O[C@H](CO)[C@@H](O)[C@H]2O)c2ncnc(N)c12 , tested with Leishmania infantum.
Outgoing: 50.8 µM

Incoming: Form: Entry = Nc1ncnc2c1c(-c1ccc(Cl)c(C(F)(F)F)c1)nn2[C@@H]1O[C@H](CO)[C@@H](O)[C@H]1O | System = Leishmania infantum | IC50 = ____
Outgoing: > 64 µM

Incoming: Kindly state the measured IC50 obtained for O=c1[nH]cnc2c1c(Br)nn2[C@@H]1O[C@H](CO)[C@@H](F)[C@H]1O with Leishmania infantum.
Outgoing: > 64 µM

Incoming: Item: Oc1ncnc2[nH]nc(Br)c12 Test system: Leishmania infantum Read-out: IC50 Value: ?
Outgoing: > 64 µM
